Assay: Fraction unbound in mouse
Assay type: ADME, organism-based
Conditions: in vivo
measurement-kind: fraction unbound
Give the figure by itself; no unit, no explanation.

fraction unbound reading for O[C@]1(C(F)(F)F)CCCC[C@H]1Nc1ccc(F)cc1 [BAY-390] : 0.081

---

Answer each item with its documented logD.
Test: Lipophilicity, logD of compound
Format: physicochemical
Settings: octanol/water
Kindly provide the number alone.

For `O[C@]1(C(F)(F)F)CCCC[C@H]1Cc1ccc(Cl)nc1` the molecule record lists logD as 3

Reported logD ( `O[C@]1(C(F)(F)F)CCCC[C@H]1Nc1ccc(F)c(Cl)c1` ) = 3.4

Reported logD of `O[C@]1(C(F)(F)F)CCCC[C@H]1N1CCc2cc(F)ccc21` : 3.9

Lab book: logD of `O[C@]1(C(F)(F)F)CCCC[C@H]1Oc1ccc(F)cc1` noted as 3.5

The molecule identified as COCCN(c1ccc(F)cc1)[C@@H]1CCCC[C@]1(O)C(F)(F)F (racemic) registered its logD at 3.8

Recorded logD (molecule OC(F)(F)[C@@]1(O)CCCC[C@H]1Cc1c[nH]c2ccccc12 (racemic) ): 3.3

Kindly note the recorded logD for `N#Cc1cc(C[C@@H]2CCCC[C@]2(O)C(F)(F)F)cs1` , which is 3.2

Quick note, logD for `O[C@]1(C(F)(F)F)CCCC[C@H]1Nc1ccc(Cl)c(Cl)c1` landed at 3.8

The molecule identified as `O[C@]1(C(F)(F)F)CCCC[C@H]1Cc1csc(Cl)c1` registered its logD at 4.3

logD measured on `CN(c1ccc(F)cc1)[C@@H]1CCCC[C@]1(O)C(F)(F)F` = 3.9

Quick note, logD for `CN([C@@H]1CCCC[C@]1(O)C(F)(F)F)S(=O)(=O)c1ccc(F)cc1` landed at 3.1

---

Molecular target: Transient receptor potential cation channel subfamily A member 1 (Rattus norvegicus, UniProt Q6RI86)
Sequence (Q6RI86 whole entry): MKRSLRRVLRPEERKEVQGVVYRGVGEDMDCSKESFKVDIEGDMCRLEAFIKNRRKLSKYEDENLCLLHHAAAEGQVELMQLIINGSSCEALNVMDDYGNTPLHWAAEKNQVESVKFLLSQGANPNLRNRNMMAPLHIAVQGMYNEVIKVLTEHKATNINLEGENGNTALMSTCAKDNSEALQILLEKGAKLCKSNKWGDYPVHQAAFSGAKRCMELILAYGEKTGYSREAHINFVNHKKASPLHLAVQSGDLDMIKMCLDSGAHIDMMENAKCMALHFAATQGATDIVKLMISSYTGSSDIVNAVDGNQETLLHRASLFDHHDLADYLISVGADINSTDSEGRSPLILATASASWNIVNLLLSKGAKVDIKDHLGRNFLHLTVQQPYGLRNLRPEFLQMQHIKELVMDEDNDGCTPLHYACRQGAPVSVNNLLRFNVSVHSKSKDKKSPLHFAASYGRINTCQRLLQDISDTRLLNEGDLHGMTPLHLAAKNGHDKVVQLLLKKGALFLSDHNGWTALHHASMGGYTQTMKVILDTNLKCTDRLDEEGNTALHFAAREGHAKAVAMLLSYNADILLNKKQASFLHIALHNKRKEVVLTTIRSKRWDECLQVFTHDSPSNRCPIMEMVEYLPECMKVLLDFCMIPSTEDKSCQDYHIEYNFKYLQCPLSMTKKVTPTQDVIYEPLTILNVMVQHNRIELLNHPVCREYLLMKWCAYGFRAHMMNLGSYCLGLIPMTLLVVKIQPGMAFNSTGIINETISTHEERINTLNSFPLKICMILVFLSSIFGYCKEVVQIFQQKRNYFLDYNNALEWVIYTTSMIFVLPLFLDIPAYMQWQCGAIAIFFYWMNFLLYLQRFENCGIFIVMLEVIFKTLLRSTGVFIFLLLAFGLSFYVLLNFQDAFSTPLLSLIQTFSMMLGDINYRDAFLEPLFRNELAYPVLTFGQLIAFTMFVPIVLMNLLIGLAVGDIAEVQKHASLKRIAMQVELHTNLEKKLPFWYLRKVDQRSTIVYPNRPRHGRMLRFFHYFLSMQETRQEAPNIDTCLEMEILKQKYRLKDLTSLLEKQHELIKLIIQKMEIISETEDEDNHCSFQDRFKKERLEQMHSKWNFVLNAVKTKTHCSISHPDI
Assay: Antagonist activity at rat TRPA1 channel expressed in CHO-K1 cells tagged with GCaMP6 by measuring calcium flux measured after 10 mins by FLIPR tetra analysis
measurement-kind: IC50 (µM)
Numbers only here, please. The scale is µM.

The reported value for `CN(c1ccc(F)cc1)[C@@H]1CCCC[C@]1(O)C(F)(F)F` in terms of IC50 is 21

Briefly, IC50 measured for `O[C@]1(C(F)(F)F)CCCC[C@H]1Nc1cccc(F)c1` : 0.95

According to the records, this compound `N#Cc1ccc(N[C@@H]2CCCC[C@]2(O)C(F)(F)F)cc1` displays IC50 of 1.3

Note to self: IC50 recorded for `CN([C@@H]1CCCC[C@]1(O)C(F)(F)F)S(=O)(=O)c1ccc(F)cc1` was 16

Record CC1(C)CCCC(O)(C(F)(F)F)C1Cc1ccc(Cl)cc1 (mixture of isomers) , field IC50: 11.5

// sample `O[C@]1(C(F)(F)F)CCCC[C@H]1N1CCc2cc(F)ccc21` , its IC50 was 10

Form field IC50, entry `O[C@]1(C(F)(F)F)CCCC[C@H]1Nc1ccc(F)cn1` : 6.3

GET /value?item= `O[C@]1(C(F)(F)F)CCCC[C@H]1Nc1ccc(Cl)c(F)c1` &field=IC50 returns 0.2

# IC50 (compound: CC1(C)CCCC(O)(C(F)(F)F)C1Cc1cccc(F)c1 (mixture of isomers) ) is 3.8

The compound listed as `O[C@]1(C(F)(F)F)CCCC[C@H]1Nc1ccc(F)c(Cl)c1` shows IC50 equal to 0.68

The compound listed as CC1(C)CCCC(O)(C(F)(F)F)C1Cc1ccc(C#N)cc1 (mixture of isomers) has a reported IC50 of 7.57

The compound listed as `O[C@]1(C(F)(F)F)CCCC[C@H]1Oc1ccc(F)cc1` has a reported IC50 of 0.12

Lab book: IC50 of `O[C@]1(C(F)(F)F)CCCC[C@H]1Nc1ccc(Cl)c(Cl)c1` noted as 0.65

Entry O[C@]1(C(F)(F)F)CCCC[C@H]1Nc1ccccc1 (racemic) , IC50 reported as 2.3

Measured IC50 of `O[C@]1(C(F)(F)F)CCCC[C@H]1Cc1ncc(Cl)s1` : 1.2

Recorded IC50 (compound COCCN(c1ccc(F)cc1)[C@@H]1CCCC[C@]1(O)C(F)(F)F (racemic) ): 3.8

For reference, reported IC50 for `O[C@]1(C(F)(F)F)CCCC[C@H]1Nc1ccc(Cl)cc1` stands at 0.118

# IC50 of `O[C@]1(C(F)(F)F)CCCC[C@H]1Cc1ccc(Cl)nc1` = 2.4

Noted for `O=C(N[C@@H]1CCCC[C@]1(O)C(F)(F)F)c1ccc(F)cc1` : its IC50 reads 15

---

Target: Transient receptor potential cation channel subfamily A member 1 (Homo sapiens)
Sequence (O75762 whole entry): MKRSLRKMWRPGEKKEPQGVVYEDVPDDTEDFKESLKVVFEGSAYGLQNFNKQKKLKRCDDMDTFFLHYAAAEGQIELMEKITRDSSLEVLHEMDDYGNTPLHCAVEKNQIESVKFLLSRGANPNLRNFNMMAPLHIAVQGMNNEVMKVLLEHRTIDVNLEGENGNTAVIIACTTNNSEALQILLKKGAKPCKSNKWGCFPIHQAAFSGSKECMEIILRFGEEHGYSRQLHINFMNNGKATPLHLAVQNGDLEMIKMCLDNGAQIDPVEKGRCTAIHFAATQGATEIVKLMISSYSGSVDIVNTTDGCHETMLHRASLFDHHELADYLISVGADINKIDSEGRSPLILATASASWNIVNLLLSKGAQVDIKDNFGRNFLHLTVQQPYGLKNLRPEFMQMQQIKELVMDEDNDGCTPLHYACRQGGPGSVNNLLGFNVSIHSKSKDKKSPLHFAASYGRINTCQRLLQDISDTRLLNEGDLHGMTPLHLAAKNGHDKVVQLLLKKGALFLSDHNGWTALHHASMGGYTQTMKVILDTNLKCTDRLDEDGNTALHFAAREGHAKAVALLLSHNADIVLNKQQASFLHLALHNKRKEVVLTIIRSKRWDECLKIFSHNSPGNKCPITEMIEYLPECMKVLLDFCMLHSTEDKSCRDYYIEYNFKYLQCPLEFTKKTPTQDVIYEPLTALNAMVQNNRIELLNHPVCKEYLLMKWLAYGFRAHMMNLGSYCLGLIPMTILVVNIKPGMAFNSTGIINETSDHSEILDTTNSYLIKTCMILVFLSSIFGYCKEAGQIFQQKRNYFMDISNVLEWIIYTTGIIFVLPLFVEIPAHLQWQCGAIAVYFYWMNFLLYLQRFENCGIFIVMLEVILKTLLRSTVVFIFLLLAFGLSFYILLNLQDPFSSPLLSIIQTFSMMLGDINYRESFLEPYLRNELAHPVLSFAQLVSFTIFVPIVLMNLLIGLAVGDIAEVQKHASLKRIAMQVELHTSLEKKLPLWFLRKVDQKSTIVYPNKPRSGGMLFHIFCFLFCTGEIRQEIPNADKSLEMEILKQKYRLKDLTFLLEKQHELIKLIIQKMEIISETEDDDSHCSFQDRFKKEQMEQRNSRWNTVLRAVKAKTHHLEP
Experiment: Antagonist activity at human wildtype TRPA1 channel expressed in CHO-K1 cells tagged with GCaMP6 by measuring calcium flux measured after […] by FLIPR tetra analysis
Format: cell-based
Labelling field: enter TRUE if recorded IC50 is less than 60 nM. Enter FALSE if it equals or exceeds that cut-off.

-- ask Answer whether the compound `Cc1cc2[nH]ncc2cc1-c1ccccc1C(F)(F)F` has IC50 strictly less than 60 nM
-- reply TRUE

-- ask Lab log: compare recorded IC50 with 60 nM; is it strictly lower for `COCCCOc1cccc([C@H]2NC(=S)Nc3c2oc2ncccc32)c1` ?
-- reply FALSE

-- ask Is IC50 of `C[C@@H](C(=O)Nc1ccnc(-c2cnc(N3CCC[C@H]3C(F)(F)F)nc2)n1)n1cnc2c1c(=O)n(C)c(=O)n2C` strictly below 60 nM?
-- reply FALSE

-- ask Dear reviewer, please state whether `C#CC(CC)(CC)NC(=O)c1cccnc1NC1CC(F)(F)C1` has IC50 strictly beneath 60 nM.
-- reply TRUE

-- ask Given the entry `O[C@]1(C(F)(F)F)CCCC[C@H]1Nc1ccc(F)cc1` , would its reported IC50 be below 60 nM?
-- reply TRUE

-- ask Just wondering, is IC50 of `Cn1c(=O)c2c(CC(=O)Nc3nc(-c4ccc(F)c(C(F)(F)F)c4F)cs3)csc2n(C)c1=O` below 60 nM?
-- reply FALSE

---

Kindly state logD for each of the entries shown.
Assay: Lipophilicity, logD of compound
Format: physicochemical
Settings: octanol/water
Answer using only a numeral; do not append any unit.

Summary for this molecule, `O[C@]1(C(F)(F)F)CCCC[C@H]1Nc1ccc(F)cc1` : logD is 3

// logD value for `O=C1c2ccc(F)cc2CN1[C@@H]1CCCC[C@]1(O)C(F)(F)F` : 2.6

Recorded logD (molecule `O[C@@]1(C(F)(F)F)CCCC[C@@H]1Cc1ccc(F)cc1` ): 3.8

---

Molecular target: Transient receptor potential cation channel subfamily A member 1 (Rattus norvegicus, UniProt Q6RI86)
Assay: Antagonist activity at rat TRPA1 channel expressed in CHO-K1 cells tagged with GCaMP6 by measuring calcium flux measured after 10 mins by FLIPR tetra analysis
measurement-kind: IC50 (µM)
Note: unit µM is implicit; provide only the numeric part.

// IC50 lookup, compound = `O[C@]1(C(F)(F)F)CCCC[C@H]1Cc1ccncc1` , result: 5.3

// IC50 lookup, compound = `N#Cc1cc(C[C@@H]2CCCC[C@]2(O)C(F)(F)F)cs1` , result: 0.62

Data point: CC1(C)CCCC(O)(C(F)(F)F)C1Cc1cccc(C#N)c1 (mixture of isomers) ; IC50 = 13

For this compound ( `O[C@]1(C(F)(F)F)CCCC[C@H]1Cc1csc(Cl)c1` ), measured IC50 is 0.13

---

Target: UniProtKB O75762
Assay: Antagonist activity at human TRPA1 channel expressed in CHO-K1 cells tagged with GCaMP6 by measuring calcium flux measured after 10 mins by FLIPR tetra analysis
Format: cell-based
Give measured pIC50 for each item. Keep answers brief.
// pIC50 is dimensionless: -log10 of concentration (M)

pIC50 of CC1(C)CCCC(O)(C(F)(F)F)C1Cc1cccc(F)c1 (mixture of isomers) , assay on UniProtKB O75762, is 6.12

Value sought: pIC50, system UniProtKB O75762, item CC1(C)CCCC(O)(C(F)(F)F)C1Cc1ccc(C#N)cc1 (mixture of isomers) . Result: 6.41

Value (pIC50, UniProtKB O75762) for record CC1(C)CCCC(O)(C(F)(F)F)C1Cc1ccc(F)cc1F (mixture of isomers) = 6.00

Considering Cc1ccc(CC2C(C)(C)CCCC2(O)C(F)(F)F)cc1 (mixture of isomers) , its pIC50 with UniProtKB O75762 was recorded as 5.90

The measured pIC50 that CC1(C)CCCC(O)(C(F)(F)F)C1Cc1cccc(C#N)c1 (mixture of isomers) showed for UniProtKB O75762 is 5.26

Lab note: compound N#Cc1ccc(NC2CCCCC2(O)C(F)(F)F)cc1C(F)(F)F (racemic) tested on UniProtKB O75762; recorded pIC50 was 4.72

Log: UniProtKB O75762, compound CC1(C)CCCC(O)(C(F)(F)F)C1Cc1ccc(Cl)cc1 (mixture of isomers) , pIC50 = 6.47
